# credit: patent US20060226082A1

STUDY_SYSTEM: adenosine deaminase (ADA, Type V, EC 3.5.4.4) entrapped in monolithic silica column (Bos taurus)
Construct: Adenosine deaminase (ADA, Type V, from bovine intestine, EC 3.5.4.4); purchased Sigma-Aldrich (Oakville, Ontario, Canada) Type V (catalogue number not given); host or cells: bovine intestine (tissue-derived)
Sequence (P56658 whole entry): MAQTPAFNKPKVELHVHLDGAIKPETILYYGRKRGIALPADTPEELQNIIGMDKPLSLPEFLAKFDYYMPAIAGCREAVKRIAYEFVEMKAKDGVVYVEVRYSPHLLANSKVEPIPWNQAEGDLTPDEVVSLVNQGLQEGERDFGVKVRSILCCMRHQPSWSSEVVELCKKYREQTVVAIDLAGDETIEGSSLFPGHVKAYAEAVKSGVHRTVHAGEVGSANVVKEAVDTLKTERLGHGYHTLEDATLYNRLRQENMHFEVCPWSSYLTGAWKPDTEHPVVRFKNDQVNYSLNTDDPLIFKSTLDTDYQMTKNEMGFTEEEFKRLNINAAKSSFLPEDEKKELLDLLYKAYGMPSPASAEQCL
TEST_DESCRIPTION: ADA enzyme reactor/MS quantitative determination of IC50, KI and Km
Type: biochemical, bovine
EXPERIMENTAL_CONDITIONS: IC50 [EHNA], EHNA alone (closed circles, FIG. 8A)
RECORDED_ENDPOINT: IC50 (nM)
Expressed in nM, but write only the number.

stdin: Can you look up the measured IC50 of CCCCCCC(C(C)O)n1cnc2c(N)ncnc21 (stereo not drawn) [EHNA, erythro-9-(2-hydroxy-3-nonyl)adenine] for me?
stdout: 29.4
